- System: tau stress granules
- Protocol: SY5Y-tT1 tau arsenite assay (tau stress granules per cell)
- Assay type: cell-based
- Particulars: SY5Y-tT1 cells, 2 hours compound, 90 minutes arsenite, 50% reduction of granules per cell, read-out: IC50, Inhibitor Activity of Tau Stress Granules
Readout kind: IC50

• Cc1cc(-c2ccc(C3CCN(CC4CCOCC4)CC3)cc2)sc1C(=O)N1CC[C@H](N)C1 [Compound 147] = < 500 nM
• Cc1cc(-c2ccc(C3CCN(C)CC3)cn2)sc1C(=O)N1CC[C@H](N)C1 [Compound 104] = 1000 to 2000 nM
• Cc1cc(-c2ccc(C3CCN(C)CC3)c(Cl)c2)sc1C(=O)N1CC[C@H](N)C1 [Compound 135] = 2000 to 6000 nM
• Cc1cc(-c2ccc3c(c2)CNCC3)sc1C(=O)N1CC[C@H](N)C1 [Compound 198] = 2000 to 6000 nM

// below: IC50 requested for another compound
[Q] Field request: IC50 | item: Cc1cc(-c2cc(C)c(C(=O)N3CC[C@H](N)C3)s2)ccc1C1CCNCC1 [Compound 149]
[A] < 500 nM

Value source: patent US20260258025A1
